target: PYL6 (Arabidopsis thaliana, UniProt Q8S8E3)
Construct: 6X-His; made in house; host or cells: E. coli BL21[DE3]pLysS
Sequence (Q8S8E3 whole entry, one chain of several): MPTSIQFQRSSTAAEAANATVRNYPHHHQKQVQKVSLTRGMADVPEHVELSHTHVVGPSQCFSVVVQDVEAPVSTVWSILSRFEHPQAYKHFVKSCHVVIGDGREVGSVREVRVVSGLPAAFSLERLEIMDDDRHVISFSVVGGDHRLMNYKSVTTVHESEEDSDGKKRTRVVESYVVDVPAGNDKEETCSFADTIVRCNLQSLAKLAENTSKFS
measurement_description: receptor-mediated PP2C (HAB1) inhibition in vitro assay
Assay type: biochemical
details: 50 uM of the test compound
Procedure: A family of 62 structurally related N-acyl sulfonamides (Tables I-V) were tested for ABA agonist activity using multiple receptor-mediated PP2C inhibition in vitro assays (Park et al., 2009). […] For these in vitro receptor assays, the compounds listed were tested in in vitro PP2C inhibition assays with 50 uM of the test compound except for ABA (10 uM). IC50s were calculated from dose curves, but only for selected compounds.
property: remaining activity at 50 µM (%)
Just the number in %, nothing appended.

N#Cc1ccc(CS(=O)(=O)NC(=O)C2(c3ccsc3)CCCCC2)cc1: 44.9
N#Cc1ccc(CS(=O)(=O)NC(=O)C2(c3ccsc3)CCCCC2)cc1Br: 17.6
N#Cc1ccc(CS(=O)(=O)NC(=O)C2(c3cccs3)CCCCC2)cc1: 57.2

Now for another entry.
Consider the compound "N#Cc1ccc(CS(=O)(=O)NC(=O)C(c2ccccc2)c2ccccc2)cc1" and give its recorded remaining activity at 50 µM. 96.9

---

Measured PP2C Activity (25 μm) PYL4 by item
target: PYL4 (Arabidopsis thaliana)
Construct: 6X-His; made in house; host or cells: E. coli BL21[DE3]pLysS
Sequence (O80920 whole entry, one chain of several): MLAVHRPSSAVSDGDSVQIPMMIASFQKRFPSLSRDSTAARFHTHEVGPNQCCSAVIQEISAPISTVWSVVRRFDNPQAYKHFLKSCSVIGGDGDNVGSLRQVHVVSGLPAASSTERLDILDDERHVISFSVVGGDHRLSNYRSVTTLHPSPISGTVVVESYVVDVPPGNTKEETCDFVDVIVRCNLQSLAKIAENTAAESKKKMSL
measurement_description: receptor-mediated PP2C (HAB1) inhibition in vitro assay
Format: biochemical
details: compound at 25 μM; control without agonist = 100%
Your answer is read as %, so omit the unit and give the number.

COc1ccc(C(C)(C)C(=O)NS(=O)(=O)Cc2ccc(C#N)cc2)cc1OC: 89
CC(C)(C(=O)NS(=O)(=O)Cc1ccc(C#N)cc1)c1ccc(Br)cc1: 89
N#Cc1ccc(CS(=O)(=O)NC(=O)C2(c3ccccc3F)CC2)cc1: 95

Proceed to the following item.
// Input: "CC(=O)N1CCC(C(=O)NS(=O)(=O)Cc2ccc(C#N)cc2)(c2ccccc2)CC1" . Output its PP2C Activity (25 μm) PYL4 only. 94

---

target: PYL10 (Arabidopsis thaliana)
Construct: 6X-His; made in house; host or cells: E. coli BL21[DE3]pLysS
Sequence (Q8H1R0 whole entry, one chain of several): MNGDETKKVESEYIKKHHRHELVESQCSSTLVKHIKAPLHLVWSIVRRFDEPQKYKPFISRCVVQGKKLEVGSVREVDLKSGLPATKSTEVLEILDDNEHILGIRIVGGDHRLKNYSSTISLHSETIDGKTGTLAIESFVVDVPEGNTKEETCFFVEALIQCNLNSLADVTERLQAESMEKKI
measurement_description: receptor-mediated PP2C (HAB1) inhibition in vitro assay
Assay type: biochemical
details: Table VII; read-out: PP2C Dose Curves PYL10 (IC50)
Listing: IC50 of selected compounds
Expressed in µM, but write only the number.

Cc1ccccc1C1(C(=O)NS(=O)(=O)Cc2ccc(C#N)cc2)CC1: 79.1
CCC(CC)(C(=O)NS(=O)(=O)Cc1ccc([N+](=O)[O-])cc1)c1ccccc1: 50.8
COc1ccccc1C1(C(=O)NS(=O)(=O)Cc2ccc(C#N)cc2)CCC1: 17.9

Now examine the next entry.
Report IC50 under test system PYL10 (Arabidopsis thaliana) for "N#Cc1ccc(CS(=O)(=O)NC(=O)C2(c3cccc(F)c3)CCCC2)cc1" . 41.6

---

target: PYL11 (Arabidopsis thaliana, UniProt Q9FJ50)
Construct: made in house; host or cells: E. coli BL21[DE3]pLysS
Sequence (Q9FJ50 whole entry, one chain of several): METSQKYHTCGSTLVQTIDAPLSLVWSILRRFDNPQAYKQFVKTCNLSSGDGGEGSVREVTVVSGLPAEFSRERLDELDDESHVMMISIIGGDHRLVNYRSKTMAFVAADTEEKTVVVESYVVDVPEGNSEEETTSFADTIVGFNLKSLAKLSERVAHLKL
measurement_description: receptor-mediated PP2C (HAB1) inhibition in vitro assay
Format: biochemical
details: Table XII-B; calculated from dose curves; read-out: PP2C Activity (IC50 in uM) PYL11
property: IC50 (µM)
Provide only the numeric value, understood in µM.

Worked cases, IC50 given:
N#Cc1ccc(CS(=O)(=O)NC(=O)C2(c3cccs3)CCCCC2)cc1: 0.39
N#Cc1ccc(CS(=O)(=O)NC(=O)C2(c3ccsc3)CCCCC2)cc1: 0.19

Attention now turns to another entry.
Please report the measured IC50 for "CC1(C)CCC(C(=O)NS(=O)(=O)Cc2ccc(C#N)cc2)(c2ccc(F)cc2)CC1" 2.22

---

target: PYL2 (Arabidopsis thaliana, UniProt O80992)
Construct: 6X-His; made in house; host or cells: E. coli BL21[DE3]pLysS
Sequence (O80992 whole entry, one chain of several): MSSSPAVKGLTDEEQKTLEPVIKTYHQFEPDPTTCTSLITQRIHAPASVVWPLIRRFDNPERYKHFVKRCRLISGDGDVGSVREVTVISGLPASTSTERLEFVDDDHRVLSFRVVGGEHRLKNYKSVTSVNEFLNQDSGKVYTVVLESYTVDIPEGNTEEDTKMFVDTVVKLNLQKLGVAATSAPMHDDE
measurement_description: receptor-mediated PP2C (HAB1) inhibition in vitro assay
Format: biochemical
details: 50 uM of the test compound
property: remaining activity at 50 µM (%)
Enter your answer as a number in %; do not include the unit.

N#Cc1ccc(CS(=O)(=O)NC(=O)C(c2ccc(F)cc2)c2ccc(F)cc2)cc1: 100

Report measured remaining activity at 50 µM; entry is "CC1(C)CCC(C(=O)NS(=O)(=O)Cc2ccc(C#N)cc2)(c2ccc(F)cc2)CC1" 94.8

Fill in reported remaining activity at 50 µM for this entry: "N#Cc1ccc(CS(=O)(=O)NC(=O)C2(c3ccsc3)CCCCC2)cc1" 81.2

Return value of remaining activity at 50 µM for input "O=C(NS(=O)(=O)Cc1ccc(F)cc1)C1(c2ccccc2)CCCCC1" , no commentary. 107

Write down remaining activity at 50 µM measured for item "CC(C)COC(=O)NS(=O)(=O)Cc1ccc(C#N)cc1" 95.2

Specify measured remaining activity at 50 µM for "N#Cc1ccc(CS(=O)(=O)NC(=O)C2(c3ccccc3)CCCCC2)cc1" . 96.2

Specify reported remaining activity at 50 µM for the compound shown: "N#Cc1ccc(CS(=O)(=O)NC(=O)C(C2CCCCC2)C2CCCCC2)cc1" 93.8

Find the measured remaining activity at 50 µM of "N#Cc1ccc(CS(=O)(=O)NC(=O)C2(c3ccsc3)CCCCC2)cc1Br" and report it. 29.6

Query remaining activity at 50 µM for "N#Cc1ccc(CS(=O)(=O)NC(=O)C(c2ccccc2)c2ccccc2)cc1" 102

Note remaining activity at 50 µM for the compound shown: "N#Cc1ccc(CS(=O)(=O)NC(=O)C2(c3cccs3)CCCCC2)cc1" 89.5

For the compound CC1CCC(C(=O)NS(=O)(=O)Cc2ccc(C#N)cc2)(c2ccc(F)cc2)CC1 (stereo not drawn) , give its reported remaining activity at 50 µM. 93

Given "O=C(NS(=O)(=O)Cc1ccc([N+](=O)[O-])cc1)C1(c2ccccc2)CCCCC1" , respond with its remaining activity at 50 µM. 115

---

target: PYL8 (Arabidopsis thaliana)
Construct: 6X-His; made in house; host or cells: E. coli BL21[DE3]pLysS
Sequence (Q9FGM1 1-188): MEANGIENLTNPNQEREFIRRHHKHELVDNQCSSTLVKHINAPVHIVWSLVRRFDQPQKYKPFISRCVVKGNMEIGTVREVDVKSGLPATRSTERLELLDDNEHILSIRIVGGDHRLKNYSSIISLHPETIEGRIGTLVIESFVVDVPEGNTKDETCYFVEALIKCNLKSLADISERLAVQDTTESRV
Sequence (Q9CAJ0 23-511 partner): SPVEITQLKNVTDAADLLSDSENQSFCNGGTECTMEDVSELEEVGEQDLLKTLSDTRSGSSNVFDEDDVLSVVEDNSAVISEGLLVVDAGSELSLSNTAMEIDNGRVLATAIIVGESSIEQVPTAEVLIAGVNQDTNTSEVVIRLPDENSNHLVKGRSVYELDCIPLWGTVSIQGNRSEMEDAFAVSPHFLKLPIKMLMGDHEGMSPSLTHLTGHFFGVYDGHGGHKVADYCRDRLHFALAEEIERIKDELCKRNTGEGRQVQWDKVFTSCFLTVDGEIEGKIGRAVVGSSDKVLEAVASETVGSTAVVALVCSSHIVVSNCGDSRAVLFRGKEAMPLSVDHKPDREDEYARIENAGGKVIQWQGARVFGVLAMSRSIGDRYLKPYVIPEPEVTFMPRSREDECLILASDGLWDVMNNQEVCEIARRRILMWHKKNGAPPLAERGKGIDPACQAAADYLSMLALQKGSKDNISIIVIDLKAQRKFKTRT
measurement_description: receptor-mediated PP2C (HAB1) inhibition in vitro assay
Format: biochemical
details: compound at 25 μM; control without agonist = 100%
Flag rule - remaining activity at 25 µM less than 30% flags label 1; the remaining entries get label 0.

Consider the worked cases shown below.
CC(C)(C(=O)NS(=O)(=O)Cc1ccc(C#N)cc1)c1ccc(Cl)cc1: label 0
N#Cc1ccc(CS(=O)(=O)NC(=O)C2(c3ccc(F)cc3)CCC2)cc1: label 1

Does "N#Cc1ccc(CS(=O)(=O)NC(=O)C2(c3ccc(Br)cc3)CC2)cc1" have remaining activity at 25 µM strictly under 30%? label 0

State whether 30% exceeds remaining activity at 25 µM recorded for "N#Cc1ccc(CS(=O)(=O)NC(=O)C2(c3ccccc3F)CCCC2)cc1" . label 0

Please let me know if "Cc1ccccc1C1(C(=O)NS(=O)(=O)Cc2ccc(C#N)cc2)CC1" shows remaining activity at 25 µM below 30%. label 0

Confirm or reject: remaining activity at 25 µM of "N#Cc1ccc(CS(=O)(=O)NC(=O)C2(c3ccccc3)CCC2)cc1" lies strictly below 30% label 1

Criterion: remaining activity at 25 µM strictly below 30%. Is it met by "N#Cc1ccc(CS(=O)(=O)NC(=O)C2(c3ccc(F)cc3)CCCCC2)cc1" ? label 1

hey, is remaining activity at 25 µM for "N#Cc1ccc(CS(=O)(=O)NC(=O)C2(c3cccc(F)c3)CCCC2)cc1" lower than 30% or not? label 0

Lab log: compare recorded remaining activity at 25 µM with 30%; is it strictly lower for "O=C(NS(=O)(=O)Cc1cccc2cccnc12)C1(c2ccccc2)CC1" ? label 0
